Target: T1, recombinant human LIGHT-214E, FLAG-tagged extracellular domain (human)
T1 construct: Trimer; Biotinylated in some assays
T1 chain: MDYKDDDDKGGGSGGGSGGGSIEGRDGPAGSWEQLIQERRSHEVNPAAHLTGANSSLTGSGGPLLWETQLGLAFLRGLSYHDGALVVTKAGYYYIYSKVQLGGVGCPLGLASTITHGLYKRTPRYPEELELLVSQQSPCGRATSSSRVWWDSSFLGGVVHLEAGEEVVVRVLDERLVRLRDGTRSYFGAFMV
Assay: HTRF competition, HVEM-Fc binding to Flag-hLIGHT-214E
RECORDED_ENDPOINT: pIC50
The scale used: pIC50 is minus the common logarithm of the concentration in molar units.

So what does the record say about pIC50 for 13H04 (purified from hybridoma supernatant) (antibody, V domains shown, Murine constant / human variable chimeric IgG, lambda, Protein G purified from hybridoma supernatant) VH: QVQLVQSGAEVKKPGASVKVSCKASGYTFTSYGISWVRQAPGQGLEWMGWISAHNANTNYAQKLQGRVTMTTDTSTSTAYMELRSLRSDDTAMYYCARLYRNWFDPWGQGTLVTVSS VL: QSALTQPASVSGSPGQSITISCTGTSSDVGGYNYVSWYQQHPGKAPKLMIYDVSKRPSGVSNRFSGSKSGNTASLTISGLQAEDEADYYCCSYAGSSTLLFGGGTKLTVL ?
8.96
